B1: POU domain, class 2, transcription factor 3, residues 186 to 260; numbered along this chain, Q9UKI9 (parent)
chain: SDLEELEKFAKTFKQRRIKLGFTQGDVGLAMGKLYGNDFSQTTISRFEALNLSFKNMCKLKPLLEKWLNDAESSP

- Variants of: B1
- ASSAY EXPLANATION: abundance fitness (aPCA) (normalised: wild type 0, dead -1); higher = more abundant; growth selection in yeast, the domain comes from the species named
- EXPERIMENTAL PARAMETERS: Homo sapiens
QUANTITY KIND: abundance fitness
// return a plain number; no unit text

A selection of reference data follows.
L50H :: 0.142
L29K :: 0.042
K59S :: -0.033
N56A :: 0.018
D26G :: -0.125

So, S74Q ? Its abundance fitness was -0.017
